FYI, the data here is from ChEMBL document CHEMBL1146649.

Tested on: Mus musculus
Experiment: Antitumor activity of 7.9 mg/kg of intravenously administered compound against B16 melanoma BL6 cells implanted into mice, value reported is percent compared to control
Assay type: functional
Settings: route intravenous
experimental.endpoint: IR
Kindly format the answer as number then unit.

Record excerpt, results attached:
What measured IR goes with CC(=O)O[C@@]12CO[C@@H]1CC[C@@]1(C)[C@@H]3O[C@H](CN(C)C)O[C@@H]3C3=C(C)[C@@H](OC(=O)[C@H](O)[C@@H](NC(=O)OC(C)(C)C)c4cccc(F)n4)C[C@@](O)([C@@H](OCc4ccccc4)[C@@H]12)C3(C)C ? 91.5%

What measured IR goes with CC(=O)O[C@@]12CO[C@@H]1CC[C@@]1(C)[C@@H]3O[C@H](CN(C)C)O[C@@H]3C3=C(C)[C@@H](OC(=O)[C@H](O)[C@@H](NC(=O)OC(C)(C)C)c4ccccn4)C[C@@](O)([C@@H](OCc4ccccc4)[C@@H]12)C3(C)C ? 82.3%

What measured IR goes with CC(=O)O[C@@]12CO[C@@H]1CC[C@@]1(C)[C@@H]3O[C@H](CN4CCOCC4)O[C@@H]3C3=C(C)[C@@H](OC(=O)[C@H](O)[C@@H](NC(=O)OC(C)(C)C)c4nccs4)C[C@@](O)([C@@H](OCc4ccccc4)[C@@H]12)C3(C)C ? 79.1%

Note: attention shifts to another entry.
What measured IR goes with CC(=O)O[C@@]12CO[C@@H]1CC[C@@]1(C)[C@@H]3O[C@H](CN4CCOCC4)O[C@@H]3C3=C(C)[C@@H](OC(=O)[C@H](O)[C@@H](NC(=O)OC(C)(C)C)c4cccc(F)n4)C[C@@](O)([C@@H](OCc4ccccc4)[C@@H]12)C3(C)C ? 28.6%

====

Tested on: PC-12
Assay: Concentration required to inhibit human PC-12 cell line growth by 50% at 72 hr continuous exposure
Type: functional
Conditions: PC-12, 72 h
experimental.endpoint: GI50 (ng/mL)
# output: bare number, implied unit ng/mL

Identify the measured GI50 of CC(=O)O[C@@]12CO[C@@H]1C[C@H](O)[C@@]1(C)[C@@H]3OC(CN4CCOCC4)O[C@@H]3C3=C(C)[C@@H](OC(=O)[C@H](O)[C@@H](NC(=O)OC(C)(C)C)c4ccccn4)C[C@@](O)([C@@H](OCc4ccccc4)[C@H]21)C3(C)C (some centres undefined) for PC-12. 0.13

Identify the measured GI50 of CC(=O)O[C@@]12CO[C@@H]1CC[C@@]1(C)[C@@H]3O[C@H](CN4CCOCC4)O[C@@H]3C3=C(C)[C@@H](OC(=O)[C@H](O)[C@@H](NC(=O)OC(C)(C)C)c4cscn4)C[C@@](O)([C@@H](OCc4ccccc4)[C@@H]12)C3(C)C for PC-12. 0.08

Identify the measured GI50 of CC(=O)O[C@@]12CO[C@@H]1CC[C@@]1(C)[C@@H]3O[C@H](CN4CCOCC4)O[C@@H]3C3=C(C)[C@@H](OC(=O)[C@H](O)[C@@H](NC(=O)OC(C)(C)C)c4cncs4)C[C@@](O)([C@@H](OCc4ccccc4)[C@@H]12)C3(C)C for PC-12. 0.12

More entries:
Identify the measured GI50 of CC(=O)O[C@@]12CO[C@@H]1CC[C@@]1(C)[C@@H]3O[C@H](CNC4CCC4)O[C@@H]3C3=C(C)[C@@H](OC(=O)[C@H](O)[C@@H](NC(=O)OC(C)(C)C)c4ccccn4)C[C@@](O)([C@@H](OCc4ccccc4)[C@@H]12)C3(C)C for PC-12. 1.45

Identify the measured GI50 of CC(=O)O[C@@]12CO[C@@H]1CC[C@@]1(C)[C@@H]3O[C@H](CN(C)C)O[C@@H]3C3=C(C)[C@@H](OC(=O)[C@H](O)[C@@H](NC(=O)OC(C)(C)C)c4cscn4)C[C@@](O)([C@@H](OCc4ccccc4)[C@@H]12)C3(C)C for PC-12. 0.19

Identify the measured GI50 of CC(=O)O[C@@]12CO[C@@H]1CC[C@@]1(C)[C@@H]3O[C@H](CN4CCOCC4)O[C@@H]3C3=C(C)[C@@H](OC(=O)[C@H](O)[C@@H](NC(=O)OC(C)(C)C)C(C)(C)C)C[C@@](O)([C@@H](OCc4ccccc4)[C@@H]12)C3(C)C for PC-12. 0.13

Identify the measured GI50 of CC(=O)O[C@@]12CO[C@@H]1CC[C@@]1(C)[C@@H]3O[C@H](CNC4CC4)O[C@@H]3C3=C(C)[C@@H](OC(=O)[C@H](O)[C@@H](NC(=O)OC(C)(C)C)c4nccs4)C[C@@](O)([C@@H](OCc4ccccc4)[C@@H]12)C3(C)C for PC-12. 0.12

Identify the measured GI50 of CC(=O)O[C@@]12CO[C@@H]1CC[C@@]1(C)[C@@H]3O[C@H](CN(C)C)O[C@@H]3C3=C(C)[C@@H](OC(=O)[C@H](O)[C@@H](NC(=O)OC(C)(C)C)C(C)(C)C)C[C@@](O)([C@@H](OCc4ccccc4)[C@@H]12)C3(C)C for PC-12. 0.5

Identify the measured GI50 of CC(=O)O[C@@]12CO[C@@H]1CC[C@@]1(C)[C@@H]3O[C@H](CN4CCOCC4)O[C@@H]3C3=C(C)[C@@H](OC(=O)[C@H](O)[C@@H](NC(=O)OC(C)(C)C)c4cccc(F)n4)C[C@@](O)([C@@H](OCc4ccccc4)[C@@H]12)C3(C)C for PC-12. 0.14

Identify the measured GI50 of CC(=O)O[C@H]1C(=O)[C@@]2(C)[C@H]([C@H](OCc3ccccc3)[C@]3(O)C[C@H](OC(=O)[C@H](O)[C@@H](NC(=O)c4ccccc4)c4ccccc4)C(C)=C1C3(C)C)[C@]1(OC(C)=O)CO[C@@H]1C[C@@H]2O for PC-12. 539

Identify the measured GI50 of CC(=O)O[C@@]12CO[C@@H]1CC[C@@]1(C)[C@@H]3O[C@H](CN(C)C)O[C@@H]3C3=C(C)[C@@H](OC(=O)[C@H](O)[C@@H](NC(=O)OC(C)(C)C)c4cncs4)C[C@@](O)([C@@H](OCc4ccccc4)[C@@H]12)C3(C)C for PC-12. 0.17

Identify the measured GI50 of CC(=O)O[C@@]12CO[C@@H]1CC[C@@]1(C)[C@@H]3O[C@H](CN(C)C)O[C@@H]3C3=C(C)[C@@H](OC(=O)[C@H](O)[C@@H](NC(=O)OC(C)(C)C)c4ccccn4)C[C@@](O)([C@@H](OCc4ccccc4)[C@@H]12)C3(C)C for PC-12. 0.74

Identify the measured GI50 of CC(=O)O[C@@]12CO[C@@H]1CC[C@@]1(C)[C@@H]3O[C@H](CN4CCOCC4)O[C@@H]3C3=C(C)[C@@H](OC(=O)[C@H](O)[C@@H](NC(=O)OC(C)(C)C)c4nccs4)C[C@@](O)([C@@H](OCc4ccccc4)[C@@H]12)C3(C)C for PC-12. 0.13

Identify the measured GI50 of CC(=O)O[C@@]12CO[C@@H]1C[C@H](O)[C@@]1(C)C(=O)[C@H](O)C3=C(C)[C@@H](OC(=O)[C@H](O)[C@@H](NC(=O)OC(C)(C)C)c4ccccc4)C[C@@](O)([C@@H](OCc4ccccc4)[C@H]21)C3(C)C for PC-12. 19.1

====

System: Mus musculus
Test: Antitumor activity of 7.9 mg/kg of perorally administered compound against B16 melanoma BL6 cells implanted into mice, value reported is percent compared to control
Type: functional
Details: route oral
experimental.endpoint: IR (%)
# output: bare number, implied unit %

What measured IR goes with CC(=O)O[C@@]12CO[C@@H]1CC[C@@]1(C)[C@@H]3O[C@H](CN(C)C)O[C@@H]3C3=C(C)[C@@H](OC(=O)[C@H](O)[C@@H](NC(=O)OC(C)(C)C)c4cccc(F)n4)C[C@@](O)([C@@H](OCc4ccccc4)[C@@H]12)C3(C)C ? 91.5

What measured IR goes with CC(=O)O[C@@]12CO[C@@H]1CC[C@@]1(C)[C@@H]3O[C@H](CN4CCOCC4)O[C@@H]3C3=C(C)[C@@H](OC(=O)[C@H](O)[C@@H](NC(=O)OC(C)(C)C)c4cccc(F)n4)C[C@@](O)([C@@H](OCc4ccccc4)[C@@H]12)C3(C)C ? -16.3

What measured IR goes with CC(=O)O[C@@]12CO[C@@H]1CC[C@@]1(C)[C@@H]3O[C@H](CN(C)C)O[C@@H]3C3=C(C)[C@@H](OC(=O)[C@H](O)[C@@H](NC(=O)OC(C)(C)C)c4ccccn4)C[C@@](O)([C@@H](OCc4ccccc4)[C@@H]12)C3(C)C ? 72.8

What measured IR goes with CC(=O)O[C@@]12CO[C@@H]1CC[C@@]1(C)[C@@H]3O[C@H](CN4CCOCC4)O[C@@H]3C3=C(C)[C@@H](OC(=O)[C@H](O)[C@@H](NC(=O)OC(C)(C)C)C(C)(C)C)C[C@@](O)([C@@H](OCc4ccccc4)[C@@H]12)C3(C)C ? 25.5
